Target: T1, recombinant Trypanosoma cruzi trans-sialidase TcTS611/2 (Trypanosoma cruzi, clone TcTS611/2 …, UniProt Q26966)
T1 construct: Trypanosoma cruzi trans-sialidase (TcTS), clone 611/2: entire globular core of TcTS without SAPA repeats; also called recombinant TcTS; pTrcTS611/2
Test: IAsys biosensor
Settings: both partners purified

BINDER | koff
VHHSI14 (VHH, also called clone SI14; VHHS14; not shown: His6, C-terminal, kept) VHH: GGGLVQAGGSLRLSCAASGRTFYNYAMGWFRQAPGKEREFVAAISWSGGSTLYADSVKGRFTISRANAQNTVYLQMNKLKPEDTAVYYCAADADAQPMGVIENYDYWGQG | 0.00265 s⁻¹
VHHSI52 (VHH, also called clone SI52; not shown: His6, C-terminal, kept) VHH: GGGLVQAGGSLRLSCAASGRTFYNYAMGWFRQAPGKEREFVAAISWSGGSTLYTDSVKGRFTISRANGQNTVYLQMNSLKPEDTAVYYCAADADAQPMGIIENYDYWGQG | 0.0103 s⁻¹
VHHSI96 (VHH, also called clone SI96; not shown: His6, C-terminal, kept) VHH: GGGLVQAGGSLRLSCAASGPTFYNYAMGWFRQAPGKEREFVAAISWSGGSTYYADSVKGRFTISRANAHNTVYLQMNSLKPEDTAVYYCAADADAQPMGIIENYDYWGQG | 0.017 s⁻¹
VHHSI57 (VHH, also called clone SI57; not shown: His6, C-terminal, kept) VHH: GGGLVQAGGSLRLSCAASGRTLYNYAMGWFRQAPGKEREFVAAISWSGGSTEYADSVKGRFTISRANAQNKVYLQMNSLKPEDTAVYYCAADADAQPMGVIENYDYWGQG | 0.0143 s⁻¹
